molecular target: pooled human IgG (human IgG1, 2, 3 and 4) (human); assay: cell-based or functional assay; further: test concentration or dose not given here
Listed next: entries and their corresponding Enzyme Activity Endpoint Assay: Fab′2.
Answer with the figure and its unit, nothing else.

# count of solved cases: 3
| BINDER | REPORTED_PROPERTY | READING |
| --- | --- | --- |
| PRT-396 (enzyme) MVTSVWTKGVTPPADFTQGEDVFHAPYVANQGWYDITKTFNGKDDLLCGAATAGNMLHWWFDQNKEYIEAYLKKHPEKQKIMFGDQELLDVRKAINTKGSQKNSELFNYFRDKAFPNLSARRLGVMPDLVLDMFINGYYLNVTKTQTTDVNRTYQEKDKRGGIFDAVFTRGDQSKLLTSRHDFKEKGLKEISDLIKQELTEGKALGLSHTTANVRINHVINLWGADFDSDGNLKAIYVTDSDSNASIGMKKYFVGVNSAGKVAISAKEIKEDNIGAQVLGLFTLSTGQDIWNQTN | Enzyme Activity Endpoint Assay: Fab′2 | 0 ng/µL |
| PRT-418 (enzyme) MTITSVWTKGVTPPTPEDFRYNNEDVLHAPYVANQGWYDITKTFDGKDNLLCGAATAGNMLHWWFDQNKEEIERYLKKHPEKQKIIFNNQELFDVKAAIDTKDSQTNSKLFNYFRDKAFPNLSARQLGVMPDLVLDMFINGYYLNLGKTQSTDVNRPYQDKDKRGGIFDAVFTRGDQTTLLTARHDLKNKGLNEISDLIKQELTEGKALALSHTYANVRINHVINLWGADFDAEGNLIAIYVTDSDANASIGMKKYAVGVNANGKVAISAKKIEGDNIGAQVLGLFTLSTGQDIWQKLS | Enzyme Activity Endpoint Assay: Fab′2 | 382 ng/µL |
| PRT-380 (enzyme) MVTSVWTKGVTPPTNFTYGEDVLHAPYVANQGWYDITKTFNGKDDLLCGAATAGNMLHWWFDQNKEQIENYLKKHPEKQKINFNGEQMFDVKEAIDTKDSQLDSKLFEYFKEKAFPYLSTKHLGVFPDHVIDMFINGYRLSLTNHGPTPVKRGSKDPRGGIFDAVFTRGDQSKLLTNRHDFKEKTLKEISDLIKQELTEGKALGISHTYANARINHVINLWGADFDAEGNLEAIYVTDSDSNASIGMKKYFVGVNSNGKVAISAKEIEEDNIGAQVLGLFTLSTGQDIWNQTN | Enzyme Activity Endpoint Assay: Fab′2 | 66 ng/µL |

The record that follows has no Enzyme Activity Endpoint Assay: Fab′2 shown yet.
So what does the record say about Enzyme Activity Endpoint Assay: Fab′2 for PRT-376 (enzyme) MVTSVWTKGVTPPTNFTYGEDVLHAPYVANQGWYDITKLFNGKDDLLCGAATAGNMLHWWFDQNKEQIENYLKKHPEKQKINFNGEQMFDVKEAIDTKDSQLDSKLFEYFKEKAFPYLSTKHLGVFPDHVIDMFINGYRLSLTNHGPTPVKRGSKDPRGGIFDAVFTRGDQSKLLTNRHDFKEKTLKEISDLIKQELTEGKALGISHTYANVRINHVINLWGADFDAEGNLEAIYVTDSDSNASIGMKKYFVGVNSNGKVAISAKEIEEDNIGAQVLGLFTLSTGQDIWNQTN ?
496 ng/µL
